src = patent US12065427B2

Biological target: STING R293Q-variant (Homo sapiens, UniProt Q86WV6, H232R/R293Q)
Construct: expressed in transfected cells; host or cells: THP1-Blue ISG hSTING KO clone, retroviral MSCV-ires-GFP-Blasti
Sequence (Q86WV6 whole entry H232R/R293Q): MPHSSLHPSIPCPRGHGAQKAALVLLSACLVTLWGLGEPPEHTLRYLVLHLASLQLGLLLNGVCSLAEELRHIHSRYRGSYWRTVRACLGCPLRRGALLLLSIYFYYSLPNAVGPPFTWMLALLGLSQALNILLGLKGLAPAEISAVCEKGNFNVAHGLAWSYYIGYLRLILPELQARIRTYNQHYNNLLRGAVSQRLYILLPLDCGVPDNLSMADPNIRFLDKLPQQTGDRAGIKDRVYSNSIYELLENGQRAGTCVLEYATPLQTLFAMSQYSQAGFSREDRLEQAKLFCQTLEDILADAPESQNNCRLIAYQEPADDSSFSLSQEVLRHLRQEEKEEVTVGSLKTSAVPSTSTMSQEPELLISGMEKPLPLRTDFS
Assay: IRF-inducible SEAP reporter assay in THP1-Blue ISG cells, STING R293Q-variant
Format: cell-based
Settings: 24 hours incubation
measured-attribute: EC50

molecule: Cc1cccc2c(-c3cccc4nn(C)cc34)nn(-c3ccc(N4CCN(C=O)CC4)nc3)c12
measured-attribute: EC50
observed: 300 nM
//
molecule: CCc1cccc2c(-c3cccc4nn(C)cc34)nn(-c3ccc(N4CCC(C(=O)O)CC4)nc3)c12
measured-attribute: EC50
observed: 700 nM
//
molecule: Cc1cccc2c(-c3cccc4nn(C)cc34)nn(-c3ccc(N4CCC5(CC4)C(=O)N(C)C(=O)N5C)nc3)c12
measured-attribute: EC50
observed: 600 nM
//
molecule: Cc1cccc2c(-c3cccc4nn(C)cc34)nn(-c3ccc(NCc4cncnc4)nc3)c12
measured-attribute: EC50
observed: 2200 nM

====

Molecular target: STING R293Q-variant (Homo sapiens, UniProt Q86WV6, H232R/R293Q)
Test: IRF-inducible SEAP reporter assay in THP1-Blue ISG cells, STING R293Q-variant
Settings: 24 hours incubation
pEC50: −log10 of the molar value.

compound: Cc1cccc2c(-c3cccc4nn(C)cc34)nn(-c3ccc(N4CCS(=O)(=O)CC4)nc3)c12 [Example #5]
pEC50: 5.92
--
compound: Cc1cccc2c(-c3cccc4nn(C)cc34)nn(-c3ccc(N4CCC(S(C)(=O)=O)CC4)nc3)c12 [compound 18]
pEC50: 6.15
--
compound: Cc1cc(C)c2c(c1)c(-c1cccc3nn(C)cc13)nn2-c1ccc(N2CC3C(C2)C3C(=O)O)nc1 (stereo not drawn) [compound 69]
pEC50: 6.15
--
compound: Cc1cccc2c(-c3cccc4nn(C)cc34)nn(-c3ccc(N4CCN(C(N)=O)CC4)nc3)c12 [Example #7]
pEC50: 6.15
--
compound: CCc1cccc2c(-c3cccc4nn(C)cc34)nn(-c3ccc(N4CC5C(C4)C5C(=O)O)nc3)c12 (stereo not drawn) [compound 65]
pEC50: 7.00
--
compound: Cc1cccc2c(-c3cccc4nn(C)cc34)nn(-c3ccc(N4CCOCC4)nc3)c12 [compound 17]
pEC50: 5.21
--
compound: Cc1c(CO)ccc2c(-c3cccc4nn(C)cc34)nn(-c3ccc(N4CCC(S(C)(=O)=O)CC4)nc3)c12 [compound 75]
pEC50: 7.00
--
compound: Cn1cc2c(-c3nn(-c4ccc(N5CC6C(C5)C6C(=O)O)nc4)c4c(Br)cccc34)cccc2n1 (stereo not drawn) [compound 64]
pEC50: 6.30
--
compound: Cc1cccc2c(-c3cccc4nn(C)cc34)nn(-c3ccc(N4CCC(S(N)(=O)=O)CC4)nc3)c12 [Example #22]
pEC50: 6.15
--
compound: Cc1cccc2c(-c3cccc4nn(C)cc34)nn(-c3ccc(N4CCC(NS(C)(=O)=O)CC4)nc3)c12 [compound 56]
pEC50: 5.66
--
compound: Cc1cccc2c(-c3cccc4nn(C)cc34)nn(-c3ccc(N4CC5C(C4)C5C(N)=O)nc3)c12 (stereo not drawn) [compound 72]
pEC50: 6.15
--
compound: Cc1cccc2c(-c3cccc4nn(C)cc34)nn(-c3ccc(N4CCn5cncc5C4)nc3)c12 [compound 12]
pEC50: 5.68
--
compound: Cc1cccc2c(-c3cccc4nn(C)cc34)nn(-c3ccc(N4CC5(CCN(C=O)C5)C4)nc3)c12 [compound 53]
pEC50: 5.80
--
compound: Cc1cccc2c(-c3cccc4nn(C)cc34)nn(-c3ccc(N4CCC(C(=O)O)CC4)nc3)c12 [Example #57]
pEC50: 6.22
--
compound: COc1cccc2c(-c3cccc4nn(C)cc34)nn(-c3ccc(N4CC5C(C4)C5C(=O)O)nc3)c12 (stereo not drawn) [compound 29]
pEC50: 6.22

====

Catalogue of molecules with associated EC50
Biological target: STING HAQ-variant (Homo sapiens, UniProt Q86WV6, G230A/H232R/R293Q/R71H)
Construct: parental THP1-Blue™ ISG cell lines (which express endogenously HAQ)
Sequence (Q86WV6 whole entry R71H/G230A/H232R/R293Q): as the sequence (Q86WV6 whole entry H232R/R293Q) above, with R71H, G230A counted along it
Test: IRF-inducible SEAP reporter assay in THP1-Blue ISG cells, STING HAQ-variant
Conditions: STING HAQ-variant (parental or re-introduced), 24 hours incubation

molecule: Cc1cccc2c(-c3cccc4nn(C)cc34)nn(-c3ccc(N4CCCNCC4)nc3)c12
system-name: STING HAQ-variant (Homo sapiens, UniProt Q86WV6, G230A/H232R/R293Q/R71H)
EC50: 1.9 µM
--
molecule: CC(=O)NC1C2CN(c3ccc(-n4nc(-c5cccc6nn(C)cc56)c5cccc(C)c54)cn3)CC21 (stereo not shown)
system-name: STING HAQ-variant (Homo sapiens, UniProt Q86WV6, G230A/H232R/R293Q/R71H)
EC50: 2.3 µM
--
molecule: Cc1cccc2c(-c3cccc4cnc(N(C)C)cc34)nn(-c3ccc(N4CCC(C(=O)O)CC4)nc3)c12
system-name: STING HAQ-variant (Homo sapiens, UniProt Q86WV6, G230A/H232R/R293Q/R71H)
EC50: 4.9 µM
--
molecule: Cc1cccc2c(-c3cccc4nn(C)cc34)nn(-c3ccc(N4CCC5(CCC(=O)N5)CC4)nc3)c12
system-name: STING HAQ-variant (Homo sapiens, UniProt Q86WV6, G230A/H232R/R293Q/R71H)
EC50: 0.6 µM

====

Molecular target: STING R293Q-variant (Homo sapiens, UniProt Q86WV6, H232R/R293Q)
Test: IRF-inducible SEAP reporter assay in THP1-Blue ISG cells, STING R293Q-variant
Conditions: 24 hours incubation

compound: Cn1cc2c(-c3nn(-c4ccc(N5CC6C(C5)C6C(=O)O)nc4)c4c(Cl)cccc34)cccc2n1 (stereo not drawn) [compound 26]
EC50, nM: 600
//
compound: Cc1cccc2c(-c3cccc4nn(C)cc34)nn(-c3ccc(N4CC5C(C4)C5C(=O)O)nc3)c12 (stereo not drawn) [Example #59]
EC50, nM: 200
//
compound: COC(=O)C1C2CN(c3ccc(-n4nc(-c5cccc6nn(C)cc56)c5cccc(C)c54)cn3)CC21 (stereo not drawn) [Example #1]
EC50, nM: 400

====

Target: STING R232H-variant (Homo sapiens, UniProt Q86WV6)
Sequence (Q86WV6 whole entry, stated change not applied): as the sequence (Q86WV6 whole entry H232R/R293Q) above, with R232H, Q293R counted along it
Test: IRF-inducible SEAP reporter assay in THP1-Blue ISG cells, STING R232H-variant
Settings: 24 hours incubation
measured-attribute: EC50

compound: Cc1cccc2c(-c3cccc4nn(C)cc34)nn(-c3ccc(N4CCS(=O)(=O)CC4)nc3)c12
system-name: STING R232H-variant (Homo sapiens, UniProt Q86WV6)
measured-attribute: EC50
observed: 1 µM
--
compound: COc1cccc2c(-c3cccc4nn(C)cc34)nn(-c3ccc(N4CC5C(C4)C5C(=O)O)nc3)c12 (stereo not shown)
system-name: STING R232H-variant (Homo sapiens, UniProt Q86WV6)
measured-attribute: EC50
observed: 0.6 µM
--
compound: Cc1cccc2c(-c3cccc4nn(C)cc34)nn(-c3ccc(N4CCC(S(N)(=O)=O)CC4)nc3)c12
system-name: STING R232H-variant (Homo sapiens, UniProt Q86WV6)
measured-attribute: EC50
observed: 0.2 µM
--
compound: Cn1cc2c(-c3nn(-c4ccc(N5CCC(C(=O)O)CC5)nc4)c4c(C(F)(F)F)cccc34)cccc2n1
system-name: STING R232H-variant (Homo sapiens, UniProt Q86WV6)
measured-attribute: EC50
observed: 0.8 µM

====

Test: Cellular permeability measurements, bidirectional Caco-2 assay
Details: human, Caco-2, pH 7.4

molecule: Cc1cccc2c(-c3cccc4nn(C)cc34)nn(-c3ccc(N4CC5(COC5)C4)nc3)c12
efflux ratio at 10 μM: 0.6

====

Assay: Solubility measurements (HTS) at pH 6.8
Type: physicochemical
Settings: kinetic from dmso stock; aqueous McIlvaine buffer pH 6.8, 24 h at room temperature, from 10 mM DMSO stock; read-out: Soblubility
Class Met: solubility kinetic at 24 h at least 60 µg/mL. Class Not met: solubility kinetic at 24 h below 60 µg/mL.

compound: Cc1cccc2c(-c3cccc4nn(C)cc34)nn(-c3ccc(N4CCC(C(=O)O)CC4)nc3)c12
label: Met
//
compound: Cc1cccc2c(-c3cccc4nn(C)cc34)nn(-c3ccc(N4CCC(c5nn[nH]n5)CC4)nc3)c12
label: Not met
//
compound: COc1cccc2c(-c3cccc4nn(C)cc34)nn(-c3ccc(N4CC5C(C4)C5C(=O)O)nc3)c12 (stereo not shown)
label: Met
//
compound: Cc1cccc2c(-c3cccc4nn(C)cc34)nn(-c3ccc(N4CCN(CC(=O)O)C(=O)C4)nc3)c12
label: Met
//
compound: Cc1cc(C)c2c(c1)c(-c1cccc3nn(C)cc13)nn2-c1ccc(N2CCC(C(=O)O)CC2)nc1
label: Met
//
compound: Cc1cccc2c(-c3cccc4c3OCO4)nn(-c3ccc(N4CC5C(C4)C5C(=O)O)nc3)c12 (stereo not shown)
label: Not met
